Recorded Emax, one value per entry.
# assayed system: ΔF508-CFTR (Homo sapiens, UniProt P13569, DEL508-508)
# Construct: expressed in transfected cells; host or cells: Fisher rat epithelial (FRT) cells expressing ΔF508-CFTR (Ussing chamber); NIH3T3 cells stably expressing ΔF508-CFTR (whole-cell recordings)
# Sequence (P13569 with tags, fused parts or gaps DEL508-508): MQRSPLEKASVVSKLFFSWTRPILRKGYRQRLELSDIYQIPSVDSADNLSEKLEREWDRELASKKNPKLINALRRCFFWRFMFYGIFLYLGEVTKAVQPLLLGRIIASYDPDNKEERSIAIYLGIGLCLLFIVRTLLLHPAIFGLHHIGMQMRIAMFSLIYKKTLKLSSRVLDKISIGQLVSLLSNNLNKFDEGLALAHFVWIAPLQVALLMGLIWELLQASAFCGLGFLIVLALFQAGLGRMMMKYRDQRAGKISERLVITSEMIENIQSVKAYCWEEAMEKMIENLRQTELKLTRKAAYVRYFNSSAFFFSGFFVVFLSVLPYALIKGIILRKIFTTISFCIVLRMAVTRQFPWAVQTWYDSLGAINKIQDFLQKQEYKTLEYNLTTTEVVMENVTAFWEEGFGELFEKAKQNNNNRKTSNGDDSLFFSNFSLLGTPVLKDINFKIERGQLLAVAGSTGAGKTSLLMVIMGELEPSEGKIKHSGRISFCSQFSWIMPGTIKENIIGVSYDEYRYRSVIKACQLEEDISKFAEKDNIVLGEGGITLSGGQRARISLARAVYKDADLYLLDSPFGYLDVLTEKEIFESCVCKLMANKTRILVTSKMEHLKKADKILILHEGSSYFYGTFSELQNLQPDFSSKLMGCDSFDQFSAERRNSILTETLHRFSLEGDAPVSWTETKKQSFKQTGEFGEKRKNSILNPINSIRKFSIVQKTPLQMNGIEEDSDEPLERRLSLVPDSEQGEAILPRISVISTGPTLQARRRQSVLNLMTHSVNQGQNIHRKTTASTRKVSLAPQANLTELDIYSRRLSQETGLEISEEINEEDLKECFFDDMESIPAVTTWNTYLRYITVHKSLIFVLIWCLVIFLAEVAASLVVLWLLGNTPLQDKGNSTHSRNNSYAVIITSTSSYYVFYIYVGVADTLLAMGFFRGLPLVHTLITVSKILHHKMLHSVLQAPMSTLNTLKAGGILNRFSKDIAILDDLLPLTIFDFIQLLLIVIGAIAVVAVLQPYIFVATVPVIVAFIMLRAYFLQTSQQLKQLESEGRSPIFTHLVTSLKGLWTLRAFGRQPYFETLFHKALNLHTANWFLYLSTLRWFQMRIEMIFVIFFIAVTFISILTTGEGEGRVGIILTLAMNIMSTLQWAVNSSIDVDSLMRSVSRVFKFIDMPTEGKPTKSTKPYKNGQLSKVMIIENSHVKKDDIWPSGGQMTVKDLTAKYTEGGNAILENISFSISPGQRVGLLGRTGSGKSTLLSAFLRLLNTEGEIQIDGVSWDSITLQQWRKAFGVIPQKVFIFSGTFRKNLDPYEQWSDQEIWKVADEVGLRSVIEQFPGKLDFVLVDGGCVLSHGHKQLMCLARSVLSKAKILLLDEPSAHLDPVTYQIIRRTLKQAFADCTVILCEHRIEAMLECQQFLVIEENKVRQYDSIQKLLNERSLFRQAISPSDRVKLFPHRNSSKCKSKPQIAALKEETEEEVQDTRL
# experiment: Assay for detecting and measuring ΔF508-CFTR potentiation properties of compounds (membrane potential optical method / Ussing chamber)
# Type: cell-based
# condition parameters: relative efficacy; efficacy compared to that of the known potentiator genistein

// below: answered molecules
- sample smiles: "CC(C)(C)c1cc2cc[nH]c2cc1NC(=O)c1c[nH]c2cnccc2c1=O"
  Emax: "25 to 100%"
- sample smiles: "O=C(Nc1ccc(N2CCCC2)cc1C(F)(F)F)c1c[nH]c2cnccc2c1=O"
  Emax: "25 to 100%"
- sample smiles: "O=C(NCC(c1ccccc1)c1ccccc1)c1c[nH]c2ccncc2c1=O"
  Emax: "25 to 100%"
- sample smiles: "O=C(NC(c1ccccc1)c1ccccc1)c1c[nH]c2ccncc2c1=O"
  Emax: "> 100%"
- sample smiles: "O=C(Nc1cc2[nH]ccc2cc1C(F)(F)F)c1c[nH]c2cnccc2c1=O"
  Emax: "25 to 100%"

Consider the additional molecule presented here.
q: Dear colleague, I am looking for the recorded Emax of the following molecule: `CC(C)(C)c1cc(C(C)(C)C)c(NC(=O)c2c[nH]c3cnccc3c2=O)cc1O`
a: 25 to 100%
